# tgt: mTOR (Homo sapiens, UniProt P42345)
# Sequence (P42345 1362-2549 limits assumed): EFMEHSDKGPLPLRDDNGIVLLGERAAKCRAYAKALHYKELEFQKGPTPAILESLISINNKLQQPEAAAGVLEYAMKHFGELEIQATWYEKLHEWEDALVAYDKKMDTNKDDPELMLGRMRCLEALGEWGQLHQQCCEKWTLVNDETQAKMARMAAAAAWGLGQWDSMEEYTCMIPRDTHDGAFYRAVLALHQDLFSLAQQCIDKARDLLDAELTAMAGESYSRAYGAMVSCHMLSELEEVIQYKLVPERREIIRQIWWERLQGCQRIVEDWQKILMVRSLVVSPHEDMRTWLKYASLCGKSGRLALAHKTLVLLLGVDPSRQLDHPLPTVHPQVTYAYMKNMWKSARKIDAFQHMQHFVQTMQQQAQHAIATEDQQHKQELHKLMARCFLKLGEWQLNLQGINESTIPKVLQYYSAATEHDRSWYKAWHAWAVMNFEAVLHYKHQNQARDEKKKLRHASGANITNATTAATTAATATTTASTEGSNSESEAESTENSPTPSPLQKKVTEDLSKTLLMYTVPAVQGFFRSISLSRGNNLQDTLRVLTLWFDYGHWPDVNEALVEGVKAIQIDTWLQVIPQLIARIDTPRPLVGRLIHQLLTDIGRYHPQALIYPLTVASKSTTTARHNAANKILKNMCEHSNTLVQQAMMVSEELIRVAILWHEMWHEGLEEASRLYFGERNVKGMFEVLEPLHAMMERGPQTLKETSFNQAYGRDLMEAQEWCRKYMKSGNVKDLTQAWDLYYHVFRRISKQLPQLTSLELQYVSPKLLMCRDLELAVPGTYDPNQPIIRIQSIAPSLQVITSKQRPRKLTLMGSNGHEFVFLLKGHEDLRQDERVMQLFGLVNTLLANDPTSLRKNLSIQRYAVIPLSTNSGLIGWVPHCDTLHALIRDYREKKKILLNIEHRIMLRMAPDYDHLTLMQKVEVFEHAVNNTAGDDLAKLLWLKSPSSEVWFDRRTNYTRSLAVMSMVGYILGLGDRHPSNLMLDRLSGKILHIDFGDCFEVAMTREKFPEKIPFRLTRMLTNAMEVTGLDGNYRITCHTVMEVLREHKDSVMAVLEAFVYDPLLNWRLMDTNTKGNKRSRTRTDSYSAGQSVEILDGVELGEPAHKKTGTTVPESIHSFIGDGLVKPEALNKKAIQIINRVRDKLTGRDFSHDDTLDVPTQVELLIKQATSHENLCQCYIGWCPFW
pIC50: −log10 of the molar value.
Below, each of the molecules is paired with its reported pIC50 value.

Some entries whose results are on file:
Cn1cc(-c2cc(-c3cnc4[nH]ccc4c3)ccn2)n(-c2cccc(C#N)c2)c1=O	5.00 to 7.00
Cn1cc(-c2cc(-c3cnc4[nH]ccc4c3)ccn2)n(-c2ccc(C(C)(C)CN)cc2)c1=O	5.00 to 7.00
Cn1cc(-c2cc(-c3cnc4[nH]ccc4c3)ccn2)n(-c2ccc(C(C)(C)C#N)cc2)c1=O	5.00 to 7.00

Challenge: Which pIC50 value is on record for Cc1cc2cc(-c3ccnc(-c4cn(C)c(=O)n4-c4ccc(C(C)(C)C#N)cc4)c3)cnc2[nH]1 ?
Response given: 5.00 to 7.00

Challenge: Now try CN1CCN(c2ccc(-n3c(-c4cc(-c5cnc6[nH]ccc6c5)ccn4)cn(C)c3=O)cc2C(F)(F)F)CC1 .
Response given: 5.00 to 7.00

Challenge: Continue with Cn1cc(-c2cc(-c3cnc4[nH]ccc4c3)ccn2)n(-c2ccc(N3CCN(S(C)(=O)=O)CC3)c(C(F)(F)F)c2)c1=O
Response given: 7.00 to 10.00
